Tested On: 5-hydroxytryptamine receptor 1A (Rattus norvegicus)
Reported Property: pKi
Give bare numbers, as −log10 of the molar value.

COc1cccc(OC)c1-c1cccc(CCN(C)C)c1 = 5.32
Cc1ccccc1-c1cccc(CCN)c1 = 5.83
Cc1cccc(C)c1-c1cccc(CCN(C)C)c1 = 5.65

// each listed molecule needs a value for pKi
1. Cc1ccccc1-c1cccc(CCN(C)C)c1
2. COc1ccccc1-c1cccc(CCN(C)C)c1

Result string:
1. 6.35
2. 6.27

---

Tested On: 5-hydroxytryptamine receptor 1A (Rattus norvegicus) (UniProt P19327)
Sequence (whole entry): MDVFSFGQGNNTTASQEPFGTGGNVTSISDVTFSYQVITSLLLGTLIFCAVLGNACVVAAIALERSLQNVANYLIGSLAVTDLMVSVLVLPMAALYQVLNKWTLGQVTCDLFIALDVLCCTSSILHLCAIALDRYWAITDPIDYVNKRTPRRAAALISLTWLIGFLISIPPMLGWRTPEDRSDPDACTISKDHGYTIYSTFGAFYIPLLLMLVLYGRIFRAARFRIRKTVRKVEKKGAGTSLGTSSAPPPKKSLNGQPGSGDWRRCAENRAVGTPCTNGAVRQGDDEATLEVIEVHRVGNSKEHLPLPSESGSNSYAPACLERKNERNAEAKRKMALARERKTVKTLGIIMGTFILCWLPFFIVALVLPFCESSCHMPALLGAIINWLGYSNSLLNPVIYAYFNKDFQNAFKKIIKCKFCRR
Assay: Binding affinity to rat 5HT1A at 0.01 uM
Reported Property: inhibition (%)
One number for each entry, in %.

Examples from the recorded data:
CN(C)CCc1cccc(-c2ccsc2)c1 = 20
COc1cccc(OC)c1-c1cccc(CCN(C)C)c1 = 3
COc1cccc(OC)c1-c1cccc(CCN2CCOCC2)c1 = 7

// each listed compound needs a value for inhibition
1. Cc1ccccc1-n1ccc(CCN(C)C)c1
2. COc1ccc(-c2cccc(CCN(C)C)c2)cc1

Result string:
1: 14; 2: 0

---

Tested On: 5-hydroxytryptamine receptor 7 (Homo sapiens, UniProt P34969)
Sequence (P34969 whole entry): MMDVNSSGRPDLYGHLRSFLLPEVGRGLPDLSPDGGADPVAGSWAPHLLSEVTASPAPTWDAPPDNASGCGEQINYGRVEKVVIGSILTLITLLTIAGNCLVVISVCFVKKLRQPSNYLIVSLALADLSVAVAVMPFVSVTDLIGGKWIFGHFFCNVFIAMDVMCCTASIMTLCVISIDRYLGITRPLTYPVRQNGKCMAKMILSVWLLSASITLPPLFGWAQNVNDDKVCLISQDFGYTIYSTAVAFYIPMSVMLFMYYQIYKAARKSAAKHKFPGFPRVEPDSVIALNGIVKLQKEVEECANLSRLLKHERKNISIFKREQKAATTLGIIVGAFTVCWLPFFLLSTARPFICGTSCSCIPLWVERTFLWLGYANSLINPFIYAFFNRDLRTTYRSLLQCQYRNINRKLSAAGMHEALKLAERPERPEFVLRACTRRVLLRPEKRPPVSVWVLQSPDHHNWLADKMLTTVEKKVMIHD
Assay: Displacement of [3H]LSD from human 5HT7 in sf9 cells at 1 uM
Assay type: cell-based
Tick MET if inhibition is 70% or greater. Tick NOT MET if inhibition is less than 70%.

Query string: Item Cc1ccccc1-c1cccc(CCN(C)C)c1 with inhibition of 70% or above?
Result string: MET

Query string: Item COc1ccc(-c2cccc(CCN(C)C)c2)cc1OC with inhibition of 70% or above?
Result string: NOT MET

Query string: Item COc1cccc(OC)c1-c1cccc(CCN2CCOCC2)c1 with inhibition of 70% or above?
Result string: NOT MET

Query string: Item COc1cccc(OC)c1-c1cccc(CCN(C)C)c1 with inhibition of 70% or above?
Result string: MET

Query string: Item Cc1cc(C)c(-n2ccc(CCN(C)C)c2)c(C)c1 with inhibition of 70% or above?
Result string: NOT MET

Query string: Item CN(C)CCc1cccc(-c2cccs2)c1 with inhibition of 70% or above?
Result string: MET

---

Tested On: 5-hydroxytryptamine receptor 7 (Homo sapiens)
Assay: Displacement of [3H]LSD from human 5HT7 in sf9 cells at 0.01 uM
Format: cell-based
Tick yes (1) if inhibition is 10% or greater. Tick no (0) if inhibition is less than 10%.

Illustrative cases are given below, each with its answer.
CN(C)CCc1cccc(-c2cccs2)c1 = yes (1)
COc1ccccc1-c1cccc(CCN(C)C)c1 = yes (1)
Cc1cccc(C)c1-c1cccc(CCN(C)C)c1 = yes (1)
Cc1cc(C)c(-n2ccc(CCN(C)C)c2)c(C)c1 = no (0)
Cc1ccccc1-n1ccc(CCN(C)C)c1 = yes (1)

Continue with the compound presented below.
Query string: Item Cc1cccc(-n2ccc(CCN)c2)c1C with inhibition of 10% or above?
Result string: yes (1)

---

Tested On: 5-hydroxytryptamine receptor 1A (Rattus norvegicus)
Assay: Binding affinity to rat 5HT1A at 0.01 uM
Reported Property: inhibition (%)
Numbers only, in %.

COc1ccc(-c2cccc(CCN(C)C)c2)cc1OC = 12

// each listed compound needs a value for inhibition
1. Cc1ccccc1-c1cccc(CCN(C)C)c1
2. Cc1cccc(C)c1-c1cccc(CCN(C)C)c1
3. COc1ccccc1-c1cccc(CCN(C)C)c1

Result string:
1: 1; 2: 6; 3: 12

---

Tested On: 5-hydroxytryptamine receptor 7 (Homo sapiens, UniProt P34969)
Assay: Displacement of [3H]LSD from human 5HT7 in sf9 cells at 1 uM
Assay type: cell-based
For each entry below, report its inhibition value.
The reply should read as a number followed by its unit.

Examples from the recorded data:
CN(C)CCc1cccc(-c2ccccc2)c1 = 70%
COc1ccccc1-c1cccc(CCN(C)C)c1 = 69%
COc1ccc(-c2cccc(CCN(C)C)c2)cc1 = 52%
Cc1cccc(-n2ccc(CCN)c2)c1C = 48%

// each listed molecule needs a value for inhibition
1. Cc1cccc(C)c1-c1cccc(CCN(C)C)c1
2. Cc1cc(C)c(-n2ccc(CCN)c2)c(C)c1

Result string:
["93%", "0%"]

Reading of inhibition for Cc1ccccc1-n1ccc(CCN)c1 with 5-hydroxytryptamine receptor 7 (Homo sapiens, UniProt P34969): 62%

---

Tested On: 5-hydroxytryptamine receptor 7 (Homo sapiens, UniProt P34969)
Assay: Displacement of [3H]LSD from human 5HT7 in sf9 cells at 0.01 uM
Assay type: cell-based
Reported Property: inhibition (%)
Numbers only, in %.

Cc1ccccc1-c1cccc(CCN)c1 = 71
COc1cccc(OC)c1-c1cccc(CCN2CCOCC2)c1 = 0
Cc1cc(C)c(-n2ccc(CCN)c2)c(C)c1 = 0

Now, please, on to the next compound.
Reading of inhibition for COc1ccc(-c2cccc(CCN(C)C)c2)cc1 with 5-hydroxytryptamine receptor 7 (Homo sapiens, UniProt P34969): 9

---

Tested On: UniProt P19327
Assay: Binding affinity to rat 5HT1A at 0.01 uM
Reported Property: inhibition (%)
One number for each entry, in %.

Cc1cc(C)c(-n2ccc(CCN)c2)c(C)c1 = 0
Cc1cc(C)c(-n2ccc(CCN(C)C)c2)c(C)c1 = 0

// each listed molecule needs a value for inhibition
1. Cc1cccc(-n2ccc(CCN)c2)c1C
2. CN(C)CCc1cccc(-c2cccs2)c1
3. Cc1ccccc1-n1ccc(CCN)c1
4. Cc1ccccc1-c1cccc(CCN)c1
5. CN(C)CCc1cccc(-c2ccccc2)c1

Result string:
[0, 6, 0, 0, 2]
